The measured values listed here are drawn from patent US20170101472A1.

- test_target: T1, human LAG3 chimera (extracellular domain of human LAG3 and trans-membrane/cytoplasmic domain of human CD300a) … (human, UniProt P18627 23-450; Q9UGN4 181-299, limits assumed)
- T1 sequence (looked up): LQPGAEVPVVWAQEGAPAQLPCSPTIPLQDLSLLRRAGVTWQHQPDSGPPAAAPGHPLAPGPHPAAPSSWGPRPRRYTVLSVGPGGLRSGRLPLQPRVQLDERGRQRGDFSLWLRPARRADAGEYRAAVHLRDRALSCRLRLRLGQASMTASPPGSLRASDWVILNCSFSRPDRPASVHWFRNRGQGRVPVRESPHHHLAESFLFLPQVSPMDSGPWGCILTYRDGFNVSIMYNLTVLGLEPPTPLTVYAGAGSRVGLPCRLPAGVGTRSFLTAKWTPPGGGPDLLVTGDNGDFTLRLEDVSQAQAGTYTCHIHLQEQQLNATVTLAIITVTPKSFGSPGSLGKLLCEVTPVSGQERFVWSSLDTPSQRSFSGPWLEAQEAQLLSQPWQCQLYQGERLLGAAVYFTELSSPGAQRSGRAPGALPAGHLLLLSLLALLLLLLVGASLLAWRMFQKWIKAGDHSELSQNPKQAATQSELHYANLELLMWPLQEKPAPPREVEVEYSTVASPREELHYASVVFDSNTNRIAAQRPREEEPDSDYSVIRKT
- measurement_notes: cell-based or functional assay
Listed next: entries and their corresponding EC50, AP1-Luc signaling, peptide mode.
Note: unit nM is implicit; provide only the numeric part.

Record excerpt, results attached:
[[record]]
binder = "H4H15479P (antibody, human IgG4, V domains shown) VH: QVQLQQWGAGLLNPSETLSLTCAVYGGAFSDYYWNWIRQPPGKGLEWIGEINHRGSTNYNPSLKSRVTISVDTSKNQFSLRMSSVTAADAAVYYCARGEDYDIWNGYYQEKWGQGTLVTVSS VL: EIVLTQSPATLSLSPGERATLSCRASQSISTYLAWYQQKPGQAPRLLIYDASKRATGIPARFSGSGSGTDFTLTISSLEPEDFVVYYCHQRSNWPLTFGGGTKVEIK"
measurement_name = "EC50, AP1-Luc signaling, peptide mode"
recorded_measurement = 0.284

[[record]]
binder = "H4H17819P (antibody, human IgG4, V domains shown, H4H = human IgG4 Fc with S108P hinge mutation) VH: EVQLVESGGGLVQPGGSLRLSCVASGFTFSLYAMTWVRQVPGKGLEWVSTISGSGGGTYYTDSVKGRFTISRDNSKNTLYLQMNSLRADDTAVFYCTKESTTGTYSYFYGMDVWGQGTTVTVSS VL: DIQMTQSPSSLSASVGDRVTITCRASQTISSYLNWYQQKPGKAPKLLIYAASSLQSGVPSRFSGSGSGTDFTLTLSGLQPEDFATYYCQQSYSTPLTFGGGTKVEIK"
measurement_name = "EC50, AP1-Luc signaling, peptide mode"
recorded_measurement = 2.12


Here is another binder to look at.
Param item = H4sH14813N (antibody, human IgG4 S228P, kappa, V domains shown, H4sH = modified human IgG4 Fc) VH: QVQLQQWGAGLLKPSETLSLTCAVYGGSFSGYYWNWIRQPPGKGLEWVGEISHRGSTNYNPSLKSRVTISLDTSKNQFSLKLTSVTAADTAVYYCSRDEELEFRFFDYWGQGTLVTVSS VL: EIVLTQSPATLSLSPGERATLSCRASQSVSSYLAWYQQKPGQAPRLLVYGASNRATGIPARFSGSGSGTDFTLTISSLEPEDFAFYYCQQRSNWPLTFGGGTKVEIKR ; retrieve measured EC50, AP1-Luc signaling, peptide mode.
0.816
